# credit: PubChem BioAssay

Assay: basal 3T3-L1 adipocyte mitochondrial potential changes, profiling panel, cell-based, JC-1 fluorescence, 3T3-L1 adipocytes, 24 h, 100 nL compound (AID 1168); further: test concentration not given here
Details: JC-1 mitochondrial fluorescence, higher = more signal, called active from +8 up or from −8 down
Quick list: z-score per entry.
Output spec: single numeric token, no unit.

* COc1ccc(CCNC(=O)[C@@]2(C)c3ccccc3C(=O)N(Cc3cc(F)cc(C(F)(F)F)c3)[C@H]2c2ccc(CO)cc2)cc1 | -0.633
* N#Cc1ccc(NN2C(C(O)c3c(F)cccc3Cl)C=CC3C(=O)N(c4ccccc4)C(=O)C32)cc1 (stereo not given) | -1.82
* CC(C)N1C(=O)c2ccccc2[C@](C)(C(=O)NCc2ccccc2)[C@@H]1c1ccc(CO)cc1 | -0.426
* C=CCN1C(=O)[C@]2(O[C@H](CCO)[C@@H]([Si](C)(C)c3ccc(OC)cc3)[C@@H]2C)c2cc(N3C(=O)c4cccc5cccc3c45)ccc21 | 0.697
* C=CC[C@@]1(C(=O)N(C)C)N=C(c2ccc(OCCCO)cc2)O[C@@H]1c1ccccc1N=[N+]=[N-] | 1.04

Ask: Request the reported z-score associated with `CCOC(=O)C[C@H]1[C@H](OC(=O)Cc2ccc3c(c2)OCO3)[C@@H](NC(=O)c2ccc3ccccc3c2)c2cc(OCCCO)ccc2N1C(=O)c1ccccc1`
Reply: 1.14

Ask: Request the reported z-score associated with `O=C1O[C@H](c2ccccc2)[C@H](c2ccccc2)N2[C@H]1[C@@H](C(=O)O)[C@]1(C(=O)Nc3ccc(C#CC4=CCCCC4)cc31)[C@H]2c1ccccc1OCCO`
Reply: 1.39

Ask: Request the reported z-score associated with `COCCOC(=O)N1C(=O)[C@@]2(c3cc(C#CC4=CCCCC4)ccc31)[C@H](c1ccc(O)cc1)N1[C@H](c3ccccc3)[C@H](c3ccccc3)OC(=O)[C@H]1[C@@H]2C(N)=O`
Reply: 0.29

Ask: Request the reported z-score associated with COc1cc(OC)c(C(O)C2C=CC3C(=O)NC(=O)C3N2Nc2ccc(Cl)cc2Cl)cc1Br (stereo not given)
Reply: -0.82

Ask: Request the reported z-score associated with `O=C(NCC(F)(F)F)[C@@H]1c2ccccc2C(=O)N(C2CCCCC2)[C@H]1c1ccc(CO)cc1`
Reply: -1.29

Ask: Request the reported z-score associated with CN1C(=O)C2C=CC(C(O)c3ccc(-c4ccccc4)s3)N(N(c3ccccc3)c3ccccc3)C2C1=O (stereo not given)
Reply: -1.98

====

System: Lefty1
Test: Lefty1 binders on small-molecule microarrays, primary screen, biochemical, small-molecule microarray, 635/667 nm fluorescence (AID 1139)
Details: small-molecule microarray binding, fluorescence 635/667; higher = more signal
Quick list: composite z-score per entry.

• CCOC(=O)C1=CCC(c2ccccc2)N(S(=O)(=O)CC[Si](C)(C)C)C1 (stereo not drawn) = -0.503
• CC1(C)[C@@H]2CC(C(O)C3C=CC4C(=O)N(c5ccccc5)C(=O)C4N3Nc3ccccc3)=C[C@H]1C2 (stereo partly drawn) = -0.409

# input for lookup
Ask: Please tell me: composite z-score of `CC[C@@H]1C=C(C(=O)O)[C@H](c2ccco2)N1S(=O)(=O)c1ccc(C)cc1` , system Lefty1?
Reply: -0.165

====

Quick list: composite z-score per entry.
System: wheat germ agglutinin (Triticum aestivum), Alexa647-labelled
Test: wheat germ agglutinin binders on compound microarrays, profiling panel, artefact control for SMM control-protein annotation, biochemical, small-molecule microarray, 635/667 nm fluorescence (AID 1140);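 further: score merges 667 nm feature emission with signal to noise over triplicate slides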
Conditions: WGA-A647 binding, 635 nm fluorescence, higher = more signal
Output spec: single numeric token, no unit.

* C=CCOC(=O)[C@H]1[C@@H]2C(=O)O[C@@H](c3ccccc3)[C@@H](c3ccccc3)N2[C@@H](c2ccc(OCCOC(=O)[C@@H]3C[C@@H]4C(=O)N[C@@H](CCCCN(C)C)C(=O)N4[C@@H]3c3ccc(O)cc3)cc2)[C@]12C(=O)Nc1ccc(I)cc12 | 0.81

# input for lookup
Ask: Request the reported composite z-score associated with `COCCOC(=O)N1C(=O)[C@@]2(c3ccccc31)[C@H](c1ccc(O)cc1)N1[C@H](c3ccccc3)[C@H](c3ccccc3)OC(=O)[C@H]1[C@@H]2C(=O)NC[C@H](O)c1ccccc1`
Reply: 0.0324
